Numbers sourced from PubChem BioAssay (NCI).

Assignment: determine reported growth for the given compounds.
# Test system: M14 melanoma
# Measurement description: NCI-60 one-dose screen, 48 h (100 = growth as untreated, 0 = no growth, -100 = all killed)
# Assay setup: 10 µM unless noted
# Description: Growth inhibition of the M14 human tumor cell line is measured as a screen for anti-cancer activity. Cells are grown in 96 well plates and exposed to the test compound for 48 hours. Compounds are tested at a single concentration, which is 10^-5 M for most compounds. The reported endpoint is percent growth (GI% or GIPRCNT), where numbers from 0 - 100% represent growth inhibition, and numbers from -100% - 0 represent cell death. For example, a value of 40 represents 60% growth inhibition. […]
This is part of a sample that, as a whole, favours compounds with a hit. Of some 83,000 tested, about 20% had one in any assay. Activity calls are given as the source filed them. The calls were made as follows: active = growth percent below 10; inactive = the rest.

growth reported for this compound O=C1/C=C/[C@@H](O)[C@@H]2C[C@@H](O)C[C@H]2/C=C/CCCCO1 : 30.2% (inactive)

Respectfully, I request growth for each entry included below.
1. CCOc1ccc2c(c1)CN(Cc1ccc(Cl)cc1)CO2
2. COc1ccc(-c2nc(-c3ccccn3)c(-c3ccccn3)n2CC(C)C)cc1OC1CCCC1
3. COC(=O)c1cc2c(n1Cc1ccccc1)-c1oncc1CCC2
4. C=C[C@@H]1CCC/C=C/[C@@H]2C[C@H](O)C[C@H]2[C@H](O)/C=C/C(=O)O1
5. COc1cccc(-c2nn(C)c3sc(C(=O)NCCN4CCN(c5ccccc5F)CC4)cc23)c1
6. NCCOc1ncccc1/C=C1\c2ccccc2-c2ccc([N+](=O)[O-])cc21
7. CC1=NCC2NC(=O)NC(C)=C12 (stereo not given)

["55.6% (inactive)", "20.9% (inactive)", "57.5% (inactive)", "21% (inactive)", "-90.1% (active)", "-63.3% (active)", "98.5% (inactive)"]

State the recorded growth for every item in the following list.
1. O=S1(=O)N(Cc2ccccc2)[C@@H](Cc2ccccc2)C2O[C@H]2[C@H](Cc2ccccc2)N1Cc1ccccc1 (stereo not given in full)
2. O=S1(=O)CCN(Cc2ccccc2)CC1

72.6% (inactive)
90.3% (inactive)

---

# Tested on: CAKI-1 renal
# Measurement description: NCI-60 one-dose screen, 48 h (100 = growth as untreated, 0 = no growth, -100 = all killed)
# Assay setup: 10 µM unless noted
About 83,000 compounds went through this panel and 20% of them were active in at least one assay; those are over-represented in the sample as a whole.
Measurement name: growth (%)
Give bare numbers, in %.

Here are 4 compounds together with their reported answers.
Record CCCN1C(=O)N(CCC)C2C1NN=c1s/c(=C3\C(=O)N(C(C)C)c4ccccc43)c(=O)n12 (stereo not given) . Reported growth: 31.7

Query NCCCNc1nc2ccccc2c2c(=O)c3cc(F)ccc3sc12 yields growth of 33.8

growth reading for COc1cc(NC(=O)CCSc2nc3ccccc3c(=O)n2Cc2ccccc2)cc(OC)c1OC : 72.5

Consider O=CCCCC(O)C=O (stereo not given) . Its measured growth is 101

Now take the following compound into account.
Documented growth of COC(=O)C1(C)CCC[C@]2(C)[C@H]3C[C@H]4C(C(C)C)=C[C@]3(CC[C@@H]12)[C@H]1[C@@H]4[C@@H](OCC#CCN2CCOCC2)CC[C@@H]1OCC#CCN1CCOCC1 (stereo not given in full) : 80
